Provenance of the data: patent US20240084011A1

Tested target: T1, recombinant mouse CTLA-4 protein (mouse, UniProt P09793 36-161)
T1 construct: Recombinant protein used as analyte in SPR/Octet; also called murine CTLA-4; mCTLA-4
Test description: SPR (Pioneer FE) or Octet (Red96e), 25 C; IgG captured by anti-human Fc or AHC sensor, mCTLA-4 as analyte
Readout label: Kd (nM)
Numbers only, in nM.

Below, each entry is followed by its recorded Kd result.
Binder: IgG antibody 78-24D17V HC / 78-24 LC (antibody, V domains shown) VH: EVQLVESGGGLVQPGGSLRLSCAASGFTFSSSSMHWVRQAPGKGLEWVSGISGSGGSTSYADSVKGRFTISRDNSKNTLYLQMNSLRAEDTAVYYCARYLMSFNLVRTSWFDVWGQGTLVTVSS VL: DIQMTQSPSSLSASVGDRVTITCQASQDISNYLNWYQQKPGKAPKLLIYDASNLETGVPSRFSGSGSGTDFTFTISSLQPEDIATYYCQQGDAWPWTFGQGTKVEIKR
Unit tag: nM
Kd: 0.34
//
Binder: IgG antibody 78-8D2 HC / 78-8 LC (antibody, V domains shown) VH: EVQLVESGGGLVQPGGSLRLSCAASGFTFSSYVMHWVRQAPGKGLEWVSAITWSGRGTYYADSVKGRFTISRDNSKNTLYLQMNSLRAEDTAVYYCARGRLFGLALYGEAFDVWGQGTLVTVSS VL: DIQMTQSPSSLSASVGDRVTITCQASKDISNYLNWYQQKPGKAPKLLIYDASNLETGVPSRFSGSGSGTDFTFTISSLQPEDIATYYCQQFNSFPLTFGQGTKVEIKR
Unit tag: nM
Kd: 0.32

Next binder, Kd to be filled in.
QUERY: Form field: reported Kd of IgG antibody 78-24D1V HC / 78-24 LC (antibody, V domains shown) VH: EVQLVESGGGLVQPGGSLRLSCAASGFTFTSYSMHWVRQAPGKGLEWVSGISGSGRSTSYADSVKGRFTISRDNSKNTLYLQMNSLRAEDTAVYYCARDLMAFNLVRAGGFDVWGQGTLVTVSS VL: DIQMTQSPSSLSASVGDRVTITCQASQDISNYLNWYQQKPGKAPKLLIYDASNLETGVPSRFSGSGSGTDFTFTISSLQPEDIATYYCQQGDAWPWTFGQGTKVEIKR
RESULT: 0.18
